Test target: CB1 receptor (Homo sapiens, UniProt P21554)
Construct: expressed in transfected cells
Sequence (P21554 whole entry): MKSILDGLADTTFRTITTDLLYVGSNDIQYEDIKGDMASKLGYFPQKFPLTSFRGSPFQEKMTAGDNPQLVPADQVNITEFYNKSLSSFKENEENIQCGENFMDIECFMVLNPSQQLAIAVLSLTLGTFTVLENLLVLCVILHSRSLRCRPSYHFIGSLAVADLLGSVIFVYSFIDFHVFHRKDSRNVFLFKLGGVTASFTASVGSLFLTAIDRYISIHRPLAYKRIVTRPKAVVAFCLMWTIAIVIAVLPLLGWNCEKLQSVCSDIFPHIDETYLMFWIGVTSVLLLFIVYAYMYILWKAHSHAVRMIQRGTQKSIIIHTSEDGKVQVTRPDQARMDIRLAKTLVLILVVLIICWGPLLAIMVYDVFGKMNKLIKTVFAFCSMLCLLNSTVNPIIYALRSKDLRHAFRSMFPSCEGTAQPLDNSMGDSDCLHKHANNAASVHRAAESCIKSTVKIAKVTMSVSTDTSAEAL
Procedure text: Binding assay for CB1 agonists or inverse agonists (SK-N-MC membranes, [3H]-CP-55,940)
Experimental conditions: read-out: CB1 receptor binding percent inhibition, test concentration 0.25 μM (footnote 8)
Consider the following compounds; for each one, report its inhibition at 0.25 µM.
Write the value in % as a bare number.

Lab note: O=C(NN1CCOCC1)c1nn(-c2ccc(Cl)cc2Cl)c2c1CCCC/C2=C\c1ccc(Cl)cc1 [Cpd 134] gave inhibition at 0.25 µM of 58

Lab note: CC(NC(=O)c1nn(-c2ccc(Cl)cc2Cl)c2c1CCCC/C2=C\c1ccc(Cl)cc1)c1ccc(Cl)cc1 (stereo not shown) [Cpd 137] gave inhibition at 0.25 µM of 77

Lab note: O=C(NS(=O)(=O)c1ccccc1)c1nn(-c2ccc(Cl)cc2Cl)c2c1CCCC/C2=C\c1ccc(Cl)cc1 [Cpd 136] gave inhibition at 0.25 µM of 39

Lab note: COC(=O)[C@@H](Cc1ccc(F)cc1)NC(=O)c1nn(Cc2ccccc2)c2c1CCCCC2c1ccccc1 (stereo partly shown) [Cpd 87] gave inhibition at 0.25 µM of 4

Lab note: C[C@@H](NC(=O)c1nn(-c2ccc(Cl)cc2Cl)c2c1CCCC/C2=C\c1ccc(Cl)cc1)C1CCCCC1 [Cpd 132] gave inhibition at 0.25 µM of 94

Lab note: O=C(NCC(F)(F)F)c1nn(Cc2ccccc2)c2c1CCCCC2c1ccccc1 (stereo not shown) [Cpd 86] gave inhibition at 0.25 µM of 0

Lab note: O=C(NCc1cccc(C(F)(F)F)c1)c1nn(Cc2ccccc2)c2c1CCCCC2c1ccccc1 (stereo not shown) [Cpd 69] gave inhibition at 0.25 µM of 23

Lab note: C[C@@H](NC(=O)c1nn(-c2ccc(Cl)cc2Cl)c2c1CCCC/C2=C\c1ccc(Cl)cc1)c1ccccc1 [Cpd 131] gave inhibition at 0.25 µM of 93

Lab note: O=C(NN1CCCCC1)c1nn(-c2ccc(Cl)cc2Cl)c2c1CCCC/C2=C\c1ccc(Cl)cc1 [Cpd 133] gave inhibition at 0.25 µM of 66

Lab note: CS(=O)(=O)n1nc(C(=O)NCc2ccccc2)c2c1C(Cc1ccc(F)cc1)CCCC2 (stereo not shown) [Cpd 130] gave inhibition at 0.25 µM of 84

Lab note: O=C(NN1CCCCC1)c1nn(Cc2ccccc2)c2c1CCCCC2c1ccccc1 (stereo not shown) [Cpd 68] gave inhibition at 0.25 µM of 0

Lab note: NS(=O)(=O)c1ccc(CNC(=O)c2nn(-c3ccc(Cl)cc3Cl)c3c2CCCC/C3=C\c2ccc(Cl)cc2)cc1 [Cpd 135] gave inhibition at 0.25 µM of 65

Lab note: O=C(NCc1ccccc1)c1n[nH]c2c1CCCCC2Cc1ccc(F)cc1 (stereo not shown) [Cpd 129] gave inhibition at 0.25 µM of 100

* * *

Test target: CB2 receptor (Homo sapiens)
Construct: expressed in transfected cells
Sequence (P34972 whole entry): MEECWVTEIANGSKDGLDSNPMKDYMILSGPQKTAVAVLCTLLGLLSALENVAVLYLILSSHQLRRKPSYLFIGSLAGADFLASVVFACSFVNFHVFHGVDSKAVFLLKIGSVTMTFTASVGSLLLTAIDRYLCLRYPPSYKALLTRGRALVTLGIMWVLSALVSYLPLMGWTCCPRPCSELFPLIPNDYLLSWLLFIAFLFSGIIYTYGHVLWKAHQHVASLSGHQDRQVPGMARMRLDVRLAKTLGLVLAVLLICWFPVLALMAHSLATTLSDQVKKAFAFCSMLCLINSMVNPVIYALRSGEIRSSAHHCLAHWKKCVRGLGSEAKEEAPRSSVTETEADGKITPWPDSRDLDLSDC
Procedure text: Modified functional cell-based assay (Beta-Glo luminescence), CB2 receptor
Experimental conditions: CB2 EC50 (Receptor Functional Activity), one sample per compound, Cpd 237 n=3
Value type: pEC50
Units for pEC50: none; it is -log10 of a concentration expressed in mol/L.

Lab note: O=C(N[C@H](CO)c1ccccc1)c1n[nH]c2c1CCCCC2Cc1cccc(Cl)c1 (single isomer, unassigned) [Cpd 231] gave pEC50 of 7.09

Lab note: C[C@H](NS(=O)(=O)/C=C/c1n[nH]c2c1CCCCC2Cc1cccc(F)c1)c1ccccc1 (single isomer, unassigned) [Cpd 232] gave pEC50 of 6.82

Lab note: O=C(N[C@H](CO)c1ccccc1)c1n[nH]c2c1CCCCC2Cc1cccc(Cl)c1 (stereo partly drawn) [Cpd 164] gave pEC50 of 7.60

Lab note: `C[C@H](NS(=O)(=O)/C=C/c1n[nH]c2c1CCCC/C2=C\c1ccc(Cl)cc1)c1ccccc1` gave pEC50 of 5.49

Lab note: O=C(N[C@H](CO)c1ccccc1)c1n[nH]c2c1CCCCC2Cc1cccc(Cl)c1 (single isomer, unassigned) [Cpd 230] gave pEC50 of 7.96
